Quick reference for MIC among some compounds
system: Pseudomonas aeruginosa; experiment: MIC, P. aeruginosa (Table 2); format: cell-based; settings: P. aeruginosa strain 15442, gram -, read-out: Anti-Microbial Activity MIC, P. aerug.

SMILES_NOTATION: C=CCc1c(C)ccc(C(C)C)c1O
MIC: > 1000 mg/L
//
SMILES_NOTATION: CCCc1cc(C(C)C)c(O)cc1C
MIC: > 1000 mg/L
//
SMILES_NOTATION: CCCc1c(C)ccc(C(C)C)c1O
MIC: > 1000 mg/L
//
SMILES_NOTATION: CCCc1c(C(C)C)ccc(C)c1O
MIC: > 1000 mg/L
//
SMILES_NOTATION: C=CCc1cc(C(C)C)c(O)cc1C
MIC: > 1000 mg/L
